PROCEDURE_DETAILS: Fluorescence excitation/emission of the styryl dye library compounds
Type: physicochemical
EXPERIMENTAL_PARAMETERS: EX/EM peak no. 1
VALUE_TYPE: EM(nm)

MOLECULE	EM(nm)
COc1ccc(C=Cc2ccc3ccccc3[n+]2C)cc1O.[I-] [Compound H15]	610-620 nm
COc1ccc2c(ccc(C=Cc3ccc(OC)c4ccccc34)[n+]2C)c1.[I-] [Compound I14]	580-590 nm

For COc1ccc2c(ccc(C=Cc3ccc(N(C)C)c4ccccc34)[n+]2C)c1.[I-] [Compound I27] the molecule record lists EM(nm) as 630-660 nm

----------
PROCEDURE_DETAILS: Fluorescence excitation/emission of the styryl dye library compounds
Assay type: physicochemical
EXPERIMENTAL_PARAMETERS: EX/EM peak no. 1
VALUE_TYPE: EM(nm)
Numbers only, in nm.

C[n+]1ccc(C=Cc2ccc(F)cc2)cc1.[I-] 590

Give measured EM(nm) for every item shown.
1. COc1ccc2c(ccc(C=Cc3ccc([N+](=O)[O-])cc3)[n+]2C)c1.[I-]
2. C[n+]1ccc(C=Cc2cccc3ccccc23)cc1.[I-]
3. COc1ccc(C=Cc2ccc3cc(OC)ccc3[n+]2C)cc1.[I-]
4. C[n+]1c(C=Cc2ccc(Cl)cc2)ccc2ccccc21.[I-]

Result ::
1: 510; 2: 510; 3: 520; 4: 640

EM(nm) reading for CN(C)c1ccc(C=Cc2cc[n+](C)c(Br)c2)cc1.[I-] : 610

----------
PROCEDURE_DETAILS: Fluorescence excitation/emission of the styryl dye library compounds
Type: physicochemical
EXPERIMENTAL_PARAMETERS: EX/EM peak no. 1
Exercise: for every item that follows, state its recorded EX(nm).

Please review the entries below; each comes with its answer.
Cc1ccnc(-c2cc(C=Cc3ccc4ccccc4c3)cc[n+]2C)c1.[I-] 320-450 nm
COc1ccccc1C=Cc1cc[n+](C)c(-c2cc(C)ccn2)c1.[I-] 420(broad) nm
CCc1ccc(C=Cc2c(OC)ccc3ccccc23)[n+](C)c1.[I-] 420(broad) nm
COc1ccc2c(ccc(C=CC=Cc3ccccc3)[n+]2C)c1.[I-] 320-360 nm

Next, consider the following compound.
Kindly note the recorded EX(nm) for C[n+]1c(C=Cc2ccc3ccccc3c2)ccc2ccccc21.[I-] , which is 340-460 nm
